Test system: sarcoma 180
protocolNotes: Therapeutic effect on sarcoma 180 transplanted in mice (Table 5)
Type: in vivo, male mice of ICR strain
statedConditions: oral, uracil (b)/(a) mol ratio 2.5, as amount of 5-fluorouracil (a), 14400 min
Exam item: assign class 1 to entries whose ED50 is below 30 mg/kg and class 0 to entries at or above 30 mg/kg. Note that a value of exactly 30 mg/kg receives class 0.

Inquiry: Is ED50 strictly under 30 mg/kg for the entry Fc1cnc(OCc2ccccc2)nc1OCc1ccccc1 ?
Reply text: class 0

Inquiry: Is ED50 strictly under 30 mg/kg for the entry O=c1[nH]c(=O)n(S(=O)(=O)c2ccccc2)cc1F ?
Reply text: class 0

Inquiry: Is ED50 strictly under 30 mg/kg for the entry CCOC(=O)n1cc(F)c(=O)[nH]c1=O ?
Reply text: class 0

Inquiry: Is ED50 strictly under 30 mg/kg for the entry CCCCCCNC(=O)n1cc(F)c(=O)[nH]c1=O ?
Reply text: class 1

Inquiry: Is ED50 strictly under 30 mg/kg for the entry O=c1[nH]cc(F)c(=O)n1C1CCCO1 (stereo not shown) [Compound 7, 3-(2-Tetrahydrofuryl)-5-fluorouracil] ?
Reply text: class 1

Inquiry: Is ED50 strictly under 30 mg/kg for the entry CCCC(=O)n1cc(F)c(=O)[nH]c1=O ?
Reply text: class 0

Inquiry: Is ED50 strictly under 30 mg/kg for the entry O=c1[nH]cc(F)c(=O)[nH]1 ?
Reply text: class 1

###

Tested on: sarcoma 180
protocolNotes: Therapeutic index (LD50/ED50) in mice (Table 5)
Assay type: in vivo, male mice of ICR strain
statedConditions: oral, uracil (b)/(a) mol ratio 0
recordedMetric: Therapeutic index (LD50/ED50)
Please reply with the number alone, leaving off any unit.

Inquiry: I am curious: what Therapeutic index (LD50/ED50) value has been reported for O=c1c(F)cn(C2CCCO2)c(=O)n1C1CCCO1 (centres unmarked) ?
Reply text: 18.8

Inquiry: I am curious: what Therapeutic index (LD50/ED50) value has been reported for CCOC(=O)n1cc(F)c(=O)[nH]c1=O ?
Reply text: 3.3

Inquiry: I am curious: what Therapeutic index (LD50/ED50) value has been reported for CCCCCCNC(=O)n1cc(F)c(=O)[nH]c1=O ?
Reply text: 21.0

Inquiry: I am curious: what Therapeutic index (LD50/ED50) value has been reported for CCCCn1cc(F)c(=O)[nH]c1=O ?
Reply text: 4.7

Inquiry: I am curious: what Therapeutic index (LD50/ED50) value has been reported for O=c1[nH]cc(F)c(=O)n1C1CCCO1 (centres unmarked) [Compound 7, 3-(2-Tetrahydrofuryl)-5-fluorouracil] ?
Reply text: 13.1

###

protocolNotes: in vivo
Design: species or system male rats of Donryu strain
statedConditions: rat, po, Concentration of 5-fluorouracil in blood
recordedMetric: concentration at 4 h (ng/mL)
Give the value, in units of ng/mL, as a plain number.

Inquiry: I am curious: what concentration at 4 h value has been reported for O=c1[nH]cc(F)c(=O)[nH]1 [Compound 1, 5-Fluorouracil] ?
Reply text: 20

###

Please go through the items and note down their Therapeutic index (LD50/ED50).
Test system: sarcoma 180
protocolNotes: Therapeutic index (LD50/ED50) in mice (Table 5)
Assay type: in vivo, male mice of ICR strain
statedConditions: oral, uracil (b)/(a) mol ratio 10
Please reply with the number alone, leaving off any unit.

Inquiry: I am curious: what Therapeutic index (LD50/ED50) value has been reported for O=c1c(F)cn(C2CCCO2)c(=O)n1C1CCCO1 (centres unmarked) [Compound 3] ?
Reply text: 42.9

Inquiry: I am curious: what Therapeutic index (LD50/ED50) value has been reported for CCOC(=O)n1cc(F)c(=O)[nH]c1=O [Compound 9, 1-Ethoxycarbonyl-5-fluorouracil] ?
Reply text: 6.4

Inquiry: I am curious: what Therapeutic index (LD50/ED50) value has been reported for O=c1[nH]cc(F)c(=O)n1C1CCCO1 (centres unmarked) [Compound 7, 3-(2-Tetrahydrofuryl)-5-fluorouracil] ?
Reply text: 23.8

Inquiry: I am curious: what Therapeutic index (LD50/ED50) value has been reported for CCCCCCNC(=O)n1cc(F)c(=O)[nH]c1=O [Compound 4, 1-(n-Hexylcarbamoyl)-5-fluorouracil] ?
Reply text: 32.2

Inquiry: I am curious: what Therapeutic index (LD50/ED50) value has been reported for CCCCn1cc(F)c(=O)[nH]c1=O [Compound 11, 1-(n-Butyl)-5-fluorouracil] ?
Reply text: 7.3
